Molecular target: T1, full-length Sudan GP (GPFL) (Sudan virus (SUDV), UniProt Q7T9D9 33-650)
T1 construct: also called Sudan GPFL; GP(S)FL
T1 sequence: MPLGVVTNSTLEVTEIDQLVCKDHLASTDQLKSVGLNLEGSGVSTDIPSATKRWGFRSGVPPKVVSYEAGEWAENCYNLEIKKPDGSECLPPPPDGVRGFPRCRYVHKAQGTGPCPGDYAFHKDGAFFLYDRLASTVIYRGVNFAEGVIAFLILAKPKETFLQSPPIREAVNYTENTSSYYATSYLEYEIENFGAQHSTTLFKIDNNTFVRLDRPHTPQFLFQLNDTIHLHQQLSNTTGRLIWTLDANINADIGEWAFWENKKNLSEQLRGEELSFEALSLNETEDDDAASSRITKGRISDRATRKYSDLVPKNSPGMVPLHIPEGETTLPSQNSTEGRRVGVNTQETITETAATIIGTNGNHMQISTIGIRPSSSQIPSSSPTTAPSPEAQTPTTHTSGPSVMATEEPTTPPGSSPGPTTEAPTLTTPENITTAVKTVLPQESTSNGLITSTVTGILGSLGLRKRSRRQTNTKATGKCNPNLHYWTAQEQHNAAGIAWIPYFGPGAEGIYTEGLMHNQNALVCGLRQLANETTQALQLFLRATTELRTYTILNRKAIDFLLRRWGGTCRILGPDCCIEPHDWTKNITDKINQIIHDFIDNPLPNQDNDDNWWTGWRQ
Assay: BLI, Fab, pH 7.4
measurement-type: kon (M⁻¹ s⁻¹)
Note: unit M⁻¹ s⁻¹ is implicit; provide only the numeric part.

[
  {
    "binder": "Fab generated from 335S (Fab, V domains shown, also called 335S Fab) VH: EVQLVESGGGVVQPGRSLRLSCAASGFSFSNYAMHWVRQAPGKGLEWVAVTWYDGSSKYHADSVKGRFTISRDNSKNTLYLQMNSLRAEDTAVYYCARWGMGIVASPGNVLNYYYFMDVWGQGTTVIVSS VL: SYELTQPPSVSVSPGQTARITCSGNPLPKKHTYWYQQKPGQAPVLMIYKDSERPSRIPERFSGSSSGTTVTLTISGVQAEDEADYYCQSADSTGIVVFGGGTKLTVL",
    "value-unit": "M⁻¹ s⁻¹",
    "kon": 88500
  }
]

Proceeding to the next binder to report its kon.
query: For the binder Fab generated from 528S (Fab, V domains shown, also called 528S Fab) VH: EVQLAESGGGVVQPGRSLRLSCAASGFTFNSYGMHWVRQAPGKGLEWVAVIWDDGSKKYYADSVKGRFTISRDNSKNTLFLQMNSLRAEDTAVYYCARETIMFTFGEVIVSSRDNYYMDVWGKGTTVTVSS VL: EIVLTQSPATLSLSPGERATLSCRASQSVSNYLAWYQQKPGQAPRLLIYDASTRAIGIPARFSGVGSGTDFTLTISSLEPEDFAVYYCQQRSNWPPLTFGGGTKVEIK , what kon is on record?
result: 42500
